Where a SMILES comes first, the peptide text is derived from it.
VALUE_TYPE: Trypsin at 100 μM % (%)
The response must be a number in % with no trailing unit.

Req: Notebook entry, Trypsin, from human pancreas (Homo sapiens, UniProt P07477) assay: Trypsin at 100 μM % of CC[C@H](C)[C@@H]1NC(=O)[C@@H]2CCCN2C(=O)[C@@H]2CCCN2C(=O)[C@H](CC(=O)O)NC(=O)[C@H](CO)NC(=O)[C@H](CCCCN)NC(=O)[C@H]([C@@H](C)O)NC(=O)[C@@H]2CSSC[C@H](NC1=O)C(=O)N[C@@H](CCCNC(=N)N)C(=O)N1CCC[C@@H]1C(=O)N1CCC[C@H]1C(=O)N[C@@H](C1CCCCC1)C(=O)N2 [Ex. 12] (HELM PEPTIDE1{[O=C([C@@H](N[*:1])C1CCCCC1)[*:2]].C.T.K.S.D.P.P.I.C.R.[dP].P}$PEPTIDE1,PEPTIDE1,2:R3-10:R3|PEPTIDE1,PEPTIDE1,1:R1-13:R2$$$V2.0) = ?
Resp: 97

---

I'd appreciate it if you could supply Thrombin at 100 μM % values for the items below.
# TEST_SYSTEM: Thrombin, from Human Plasma (Homo sapiens, UniProt P00734)
# PROCEDURE_TEXT: Enzymatic assay, thrombin
Where a SMILES comes first, the peptide text is derived from it.
Field note: include the unit after the figure.

Req: Notebook entry, Thrombin, from Human Plasma (Homo sapiens, UniProt P00734) assay: Thrombin at 100 μM % of CCCC[C@@H]1NC(=O)[C@@H]2CCCN2C(=O)[C@@H]2CCCN2C(=O)[C@H](CC(=O)O)NC(=O)[C@H](CO)NC(=O)[C@H](CCCCN)NC(=O)[C@H]([C@@H](C)O)NC(=O)[C@@H]2CSSC[C@H](NC1=O)C(=O)N[C@@H](CCCNC(=N)N)C(=O)N1CCC[C@@H]1C(=O)N1CCC[C@H]1C(=O)N[C@@H]([C@@H](C)CC)C(=O)N2 [Ex. 57] (HELM PEPTIDE1{I.C.T.K.S.D.P.P.[Nle].C.R.[dP].P}$PEPTIDE1,PEPTIDE1,2:R3-10:R3|PEPTIDE1,PEPTIDE1,1:R1-13:R2$$$V2.0) = ?
Resp: 11%

Req: Notebook entry, Thrombin, from Human Plasma (Homo sapiens, UniProt P00734) assay: Thrombin at 100 μM % of CC[C@H](C)[C@@H]1NC(=O)[C@@H]2CCCN2C(=O)[C@@H]2CCCN2C(=O)[C@H](CC(=O)O)NC(=O)[C@H](CO)NC(=O)[C@H](CCCCN)NC(=O)[C@H]([C@@H](C)O)NC(=O)[C@@H]2CSSC[C@H](NC1=O)C(=O)N[C@@H]([C@@H](C)O)C(=O)N1CCC[C@@H]1C(=O)N1CCC[C@H]1C(=O)N[C@@H](C1CCCCC1)C(=O)N2 [Ex. 38] (HELM PEPTIDE1{[O=C([C@@H](N[*:1])C1CCCCC1)[*:2]].C.T.K.S.D.P.P.I.C.T.[dP].P}$PEPTIDE1,PEPTIDE1,2:R3-10:R3|PEPTIDE1,PEPTIDE1,1:R1-13:R2$$$V2.0) = ?
Resp: 0%

Req: Notebook entry, Thrombin, from Human Plasma (Homo sapiens, UniProt P00734) assay: Thrombin at 100 μM % of CCCC[C@@H]1NC(=O)[C@@H]2CCCN2C(=O)[C@H]2CCCN2C(=O)[C@H](Cc2ccc(O)cc2)NC(=O)[C@H](CCCCN)NC(=O)[C@H](CCC(N)=O)NC(=O)[C@@H]2CCCN2C(=O)[C@@H]2CCCN2C(=O)[C@H]([C@@H](C)CC)NC(=O)[C@H](CO)NC(=O)[C@H](C)NC(=O)[C@H]([C@@H](C)O)NC(=O)[C@H](CCC(=O)O)NC1=O [Ex. 104] (HELM PEPTIDE1{[Nle].E.T.A.S.I.P.P.Q.K.Y.[dP].P}$PEPTIDE1,PEPTIDE1,1:R1-13:R2$$$V2.0) = ?
Resp: 7.7%

Req: Notebook entry, Thrombin, from Human Plasma (Homo sapiens, UniProt P00734) assay: Thrombin at 100 μM % of CC[C@H](C)[C@@H]1NC(=O)[C@@H]2CCCN2C(=O)[C@@H]2CCCN2C(=O)[C@H](CC(=O)O)NC(=O)[C@H](CO)NC(=O)[C@H](CCCCN)NC(=O)[C@H]([C@@H](C)O)NC(=O)[C@@H]2CSSC[C@H](NC1=O)C(=O)N[C@@H](Cc1ccccc1)C(=O)N1CCC[C@@H]1C(=O)N1CCC[C@H]1C(=O)N[C@@H](CCCNC(=N)N)C(=O)N2 [Ex. 75] (HELM PEPTIDE1{R.C.T.K.S.D.P.P.I.C.F.[dP].P}$PEPTIDE1,PEPTIDE1,2:R3-10:R3|PEPTIDE1,PEPTIDE1,1:R1-13:R2$$$V2.0) = ?
Resp: 1.1%

Origin of values: patent US8658604B2
